Details: 333.15 K; 20000 kPa; Liquid; Vibrating tube method
testReadout: mass density (kg/m3)

INSERT INTO measurements (inputsmiles, measured) VALUES
  ('Cc1cccs1', 995.46),
  ('Cc1ccc(C)s1', 962.79),
  ('c1ccsc1', 1036.34),
  ('Cc1ccsc1', 997.03);

----------
Details: 318.15 K; 50000 kPa; Liquid; Vibrating tube method
testReadout: mass density (kg/m3)

INSERT INTO measurements (compound, testreadout, measured) VALUES
  ('Cc1ccsc1 [3-methylthiophene]', 'mass density', 1033.15),
  ('c1ccsc1 [thiophene]', 'mass density', 1075.92),
  ('Cc1cccs1 [2-methylthiophene]', 'mass density', 1032.3),
  ('Cc1ccc(C)s1 [2,5-dimethylthiophene]', 'mass density', 998.2);

----------
Conditions: 338.15 K; 40000 kPa; Liquid; Vibrating tube method
testReadout: mass density (kg/m3)

INSERT INTO results (inputsmiles, testreadout, measured) VALUES
  ('c1ccsc1', 'mass density', 1048.31),
  ('Cc1cccs1', 'mass density', 1007.02),
  ('Cc1ccc(C)s1', 'mass density', 974.25),
  ('Cc1ccsc1', 'mass density', 1008.33);

----------
Conditions: 283.15 K; 15000 kPa; Liquid; Vibrating tube method
testReadout: mass density (kg/m3)

INSERT INTO results (inputsmiles, testreadout, valueunit, measured) VALUES
  ('c1ccsc1', 'mass density', 'kg/m3', 1087.78),
  ('Cc1cccs1', 'mass density', 'kg/m3', 1041.92),
  ('Cc1ccc(C)s1', 'mass density', 'kg/m3', 1006.35),
  ('Cc1ccsc1', 'mass density', 'kg/m3', 1042.56);

----------
Settings: 333.15 K; 60000 kPa; Liquid; Vibrating tube method
testReadout: mass density (kg/m3)

INSERT INTO assay_data (inputsmiles, testreadout, measured) VALUES
  ('Cc1ccsc1', 'mass density', 1026.67),
  ('Cc1cccs1', 'mass density', 1025.71),
  ('c1ccsc1', 'mass density', 1068.26),
  ('Cc1ccc(C)s1', 'mass density', 992.25);

----------
Conditions: 338.15 K; 45000 kPa; Liquid; Vibrating tube method
testReadout: mass density (kg/m3)

INSERT INTO assay_data (inputsmiles, measured) VALUES
  ('Cc1cccs1', 1010.79),
  ('Cc1ccc(C)s1', 977.91),
  ('Cc1ccsc1', 1012.04),
  ('c1ccsc1', 1052.28);

----------
Conditions: 308.15 K; 20000 kPa; Liquid; Vibrating tube method
testReadout: mass density (kg/m3)

INSERT INTO assay_data (inputsmiles, measured) VALUES
  ('Cc1ccc(C)s1', 986.2),
  ('Cc1ccsc1', 1021.53),
  ('Cc1cccs1', 1020.43),
  ('c1ccsc1', 1063.97);

----------
Conditions: 328.15 K; 20000 kPa; Liquid; Vibrating tube method
testReadout: mass density (kg/m3)

INSERT INTO measurements (inputsmiles, testreadout, valueunit, measured) VALUES
  ('Cc1ccc(C)s1', 'mass density', 'kg/m3', 967.5),
  ('Cc1cccs1', 'mass density', 'kg/m3', 1000.47),
  ('Cc1ccsc1', 'mass density', 'kg/m3', 1001.93),
  ('c1ccsc1', 'mass density', 'kg/m3', 1041.91);

----------
Conditions: 323.15 K; 40000 kPa; Liquid; Vibrating tube method
testReadout: mass density (kg/m3)

INSERT INTO measurements (inputsmiles, testreadout, valueunit, measured) VALUES
  ('Cc1ccsc1', 'mass density', 'kg/m3', 1021.93),
  ('Cc1cccs1', 'mass density', 'kg/m3', 1020.87),
  ('c1ccsc1', 'mass density', 'kg/m3', 1063.67),
  ('Cc1ccc(C)s1', 'mass density', 'kg/m3', 987.24);

----------
Settings: 283.15 K; 7000 kPa; Liquid; Vibrating tube method
testReadout: mass density (kg/m3)

INSERT INTO measurements (inputsmiles, valueunit, measured) VALUES
  ('Cc1cccs1', 'kg/m3', 1036.18),
  ('Cc1ccc(C)s1', 'kg/m3', 1000.68),
  ('Cc1ccsc1', 'kg/m3', 1036.93),
  ('c1ccsc1', 'kg/m3', 1081.81);

----------
Conditions: 288.15 K; 25000 kPa; Liquid; Vibrating tube method
testReadout: mass density (kg/m3)

INSERT INTO measurements (inputsmiles, measured) VALUES
  ('Cc1ccsc1', 1044.41),
  ('c1ccsc1', 1089.45),
  ('Cc1ccc(C)s1', 1008.38),
  ('Cc1cccs1', 1043.79);

----------
Settings: 338.15 K; 25000 kPa; Liquid; Vibrating tube method
testReadout: mass density (kg/m3)

INSERT INTO assay_data (inputsmiles, measured) VALUES
  ('Cc1ccc(C)s1', 962.41),
  ('c1ccsc1', 1035.41),
  ('Cc1cccs1', 994.85),
  ('Cc1ccsc1', 996.41);

----------
Conditions: 293.15 K; 25000 kPa; Liquid; Vibrating tube method
testReadout: mass density (kg/m3)

INSERT INTO measurements (inputsmiles, measured) VALUES
  ('Cc1ccsc1', 1039.6),
  ('Cc1cccs1', 1038.88),
  ('Cc1ccc(C)s1', 1003.72),
  ('c1ccsc1', 1084.05);

----------
Conditions: 328.15 K; 60000 kPa; Liquid; Vibrating tube method
testReadout: mass density (kg/m3)

INSERT INTO results (compound, testreadout, measured) VALUES
  ('Cc1ccc(C)s1 [2,5-dimethylthiophene]', 'mass density', 996.35),
  ('Cc1cccs1 [2-methylthiophene]', 'mass density', 1030.01),
  ('c1ccsc1 [thiophene]', 'mass density', 1073.07),
  ('Cc1ccsc1 [3-methylthiophene]', 'mass density', 1030.89);

----------
Details: 318.15 K; 40000 kPa; Liquid; Vibrating tube method
testReadout: mass density (kg/m3)

INSERT INTO assay_data (inputsmiles, valueunit, measured) VALUES
  ('Cc1ccsc1', 'kg/m3', 1026.48),
  ('c1ccsc1', 'kg/m3', 1068.77),
  ('Cc1cccs1', 'kg/m3', 1025.49),
  ('Cc1ccc(C)s1', 'kg/m3', 991.55);

----------
Conditions: 293.15 K; 2000 kPa; Liquid; Vibrating tube method
testReadout: mass density (kg/m3)

INSERT INTO assay_data (inputsmiles, measured) VALUES
  ('Cc1ccc(C)s1', 986.82),
  ('Cc1ccsc1', 1022.81),
  ('Cc1cccs1', 1021.76),
  ('c1ccsc1', 1066.21);

----------
Conditions: 313.15 K; 50000 kPa; Liquid; Vibrating tube method
testReadout: mass density (kg/m3)

INSERT INTO results (inputsmiles, measured) VALUES
  ('c1ccsc1', 1080.86),
  ('Cc1ccsc1', 1037.58),
  ('Cc1cccs1', 1036.79),
  ('Cc1ccc(C)s1', 1002.44);

----------
Details: 303.15 K; 20000 kPa; Liquid; Vibrating tube method
testReadout: mass density (kg/m3)

INSERT INTO results (inputsmiles, testreadout, measured) VALUES
  ('Cc1ccc(C)s1', 'mass density', 990.9),
  ('Cc1ccsc1', 'mass density', 1026.42),
  ('c1ccsc1', 'mass density', 1069.46),
  ('Cc1cccs1', 'mass density', 1025.42);

----------
Conditions: 313.15 K; 55000 kPa; Liquid; Vibrating tube method
testReadout: mass density (kg/m3)

INSERT INTO measurements (molecule, valueunit, measured) VALUES
  ('Cc1cccs1 [2-methylthiophene]', 'kg/m3', 1039.99),
  ('c1ccsc1 [thiophene]', 'kg/m3', 1084.2),
  ('Cc1ccc(C)s1 [2,5-dimethylthiophene]', 'kg/m3', 1005.56),
  ('Cc1ccsc1 [3-methylthiophene]', 'kg/m3', 1040.71);

----------
Conditions: 308.15 K; 25000 kPa; Liquid; Vibrating tube method
testReadout: mass density (kg/m3)

INSERT INTO assay_data (molecule, valueunit, measured) VALUES
  ('Cc1ccc(C)s1 [2,5-dimethylthiophene]', 'kg/m3', 989.91),
  ('c1ccsc1 [thiophene]', 'kg/m3', 1067.92),
  ('Cc1cccs1 [2-methylthiophene]', 'kg/m3', 1024.2),
  ('Cc1ccsc1 [3-methylthiophene]', 'kg/m3', 1025.22);

----------
Details: 328.15 K; 50000 kPa; Liquid; Vibrating tube method
testReadout: mass density (kg/m3)

INSERT INTO assay_data (inputsmiles, testreadout, valueunit, measured) VALUES
  ('Cc1cccs1', 'mass density', 'kg/m3', 1023.37),
  ('Cc1ccsc1', 'mass density', 'kg/m3', 1024.36),
  ('Cc1ccc(C)s1', 'mass density', 'kg/m3', 989.84),
  ('c1ccsc1', 'mass density', 'kg/m3', 1066.05);
